FYI, the data here is from patent US20170296640A1.

Target: T1, HLA-A*02:01 (peptide-receptive MHC class I monomer after UV cleavage of the UV-sensitive ligand) (human)
T1 construct: MHC monomers loaded by UV-ligand exchange and captured on streptavidin plates
Experiment: UV ligand-exchange ELISA; exchange yield grade (+ >=10%, ++ >=20%, +++ >=50%, ++++ >=75%)
REPORTED PROPERTY: peptide exchange yield

Input FIPDFIPAV [FIPDFIPAV (SEQ ID NO: 241)] . Output peptide exchange yield: 20 to 50%

Input KVQDVLHQV [KVQDVLHQV (SEQ ID NO: 158)] . Output peptide exchange yield: 50 to 75%

Input GLSDISPST [GLSDISPST (SEQ ID NO: 114)] . Output peptide exchange yield: 20 to 50%

Input QLFEEEIEL [QLFEEEIEL (SEQ ID NO: 215)] . Output peptide exchange yield: 20 to 50%

Input GLLQQPPAL [GLLQQPPAL (SEQ ID NO: 146)] . Output peptide exchange yield: 50 to 75%

Input KVMEGTVAA [KVMEGTVAA (SEQ ID NO: 232)] . Output peptide exchange yield: 20 to 50%

Input SLLDNLLTI [SLLDNLLTI (SEQ ID NO: 116)] . Output peptide exchange yield: 50 to 75%

Input TLQEETAVYL [TLQEETAVYL (SEQ ID NO: 72)] . Output peptide exchange yield: 20 to 50%

Input GMWNPNAPVFL [GMWNPNAPVFL (SEQ ID NO: 255)] . Output peptide exchange yield: ≥ 75%

Input NLMLELETV [NLMLELETV (SEQ ID NO: 161)] . Output peptide exchange yield: 50 to 75%

Input SSLEENLLHQV [SSLEENLLHQV (SEQ ID NO: 169)] . Output peptide exchange yield: 50 to 75%

Input LLLSDSGFYL [LLLSDSGFYL (SEQ ID NO: 159)] . Output peptide exchange yield: 50 to 75%

Input SLAAVSQQL [SLAAVSQQL (SEQ ID NO: 295)] . Output peptide exchange yield: 50 to 75%

Input VLLGLPLLV [VLLGLPLLV (SEQ ID NO: 104)] . Output peptide exchange yield: 50 to 75%

Input SLQDHLEKV [SLQDHLEKV (SEQ ID NO: 103)] . Output peptide exchange yield: 50 to 75%

Input AMLAQQMQL [AMLAQQMQL (SEQ ID NO: 305)] . Output peptide exchange yield: 50 to 75%
